molecular target: T1, VEGFR2-Fc fusion; test: biolayer interferometry (Octet Red), biotinylated WW-B1 on streptavidin sensors, VEGFR2-Fc 1 to 100 nM, steady state analysis
T1 construct: Bought from R&D Systems
Where no end group is shown, it is not given here. The star is where a group is joined. Biotin = O=C1N[C@H]2[C@H](CS[C@H]2CCCCC(=O)*)N1
measured-property: pKd
Keep it numeric: pKd is minus log10 of the concentration in mol/L.

# pKd of Biotin-MADEEKLPPGWYKMWSSPGRVLYVNDITHAHRWERPSG (designed binder, not fully specified, Modified Pin1 WW domain; also called linear WW-B1; clone WW-B1) [WW-B1 VEGFR2 WW domain, chemically synthesised, biotinylated (linear)] = 7.36
